The molecules listed here are annotated with their solubility.
experiment notes: physchem
condition: fassgf or other biorelevant, kinetic from dmso stock, Solubility Mean

molecule: CC(C)C(=O)OC[C@H]1O[C@@H](n2ccc(NO)nc2=O)[C@H](O)[C@@H]1O [molnupiravir, reference compound]
comparator: >
solubility (µM): 200

molecule: C[N+](C)(C)CCOP(=O)([O-])OP(=O)([O-])OC[C@H]1O[C@@H](n2ccc(NO)nc2=O)[C@H](O)[C@@H]1O.[Na+]
comparator: =
solubility (µM): 16.1

====

experiment notes: physchem
condition: pH 7.4, aqueous buffer, kinetic from dmso stock, Solubility 2nd

molecule: C[N+](C)(C)CCOP(=O)([O-])OP(=O)([O-])OC[C@H]1O[C@@H](n2ccc(NO)nc2=O)[C@H](O)[C@@H]1O.[Na+]
solubility / µM: 14.4
--
molecule: CC(C)C(=O)OC[C@H]1O[C@@H](n2ccc(NO)nc2=O)[C@H](O)[C@@H]1O [molnupiravir, reference compound]
solubility / µM: 291

====

experiment notes: in vitro
condition: dog, MDCK cells
measured parameter: CC50 (µM)

molecule: C[N+](C)(C)CCOP(=O)([O-])OP(=O)([O-])OC[C@H]1O[C@@H](n2ccc(NO)nc2=O)[C@H](O)[C@@H]1O.[Na+] [Example 1, mono sodium salt]
unit text: µM
test value: 25

====

experiment notes: physchem
condition: simulated gastric fluid, Solubility 2nd

compound: C[N+](C)(C)CCOP(=O)([O-])OP(=O)([O-])OC[C@H]1O[C@@H](n2ccc(NO)nc2=O)[C@H](O)[C@@H]1O.[Na+]
comparator: <
solubility, µM: 1

compound: CC(C)C(=O)OC[C@H]1O[C@@H](n2ccc(NO)nc2=O)[C@H](O)[C@@H]1O [molnupiravir, reference compound]
comparator: =
solubility, µM: 293

====

experiment notes: A-B permeability (Caco-2, pH 6.5/7.4)
condition: human, Caco-2, pH 6.5, Permeability 1st, A-B, Caco-2, pH 6.5/7.4; test conc. 1.0E−05M
measured parameter: Papp at 10 µM (×10⁻⁶ cm/s)

molecule: CC(C)C(=O)OC[C@H]1O[C@@H](n2ccc(NO)nc2=O)[C@H](O)[C@@H]1O [molnupiravir, reference compound]
measured parameter: Papp at 10 µM
test value: 0.19
//
molecule: C[N+](C)(C)CCOP(=O)([O-])OP(=O)([O-])OC[C@H]1O[C@@H](n2ccc(NO)nc2=O)[C@H](O)[C@@H]1O.[Na+]
measured parameter: Papp at 10 µM
test value: 36.1

====

experiment notes: A-B permeability (Caco-2, pH 6.5/7.4)
condition: human, Caco-2, pH 6.5, Permeability 2nd, A-B, Caco-2, pH 6.5/7.4; test conc. 1.0E−05M
The compounds listed here are annotated with their Papp at 10 µM.

compound: CC(C)C(=O)OC[C@H]1O[C@@H](n2ccc(NO)nc2=O)[C@H](O)[C@@H]1O [molnupiravir, reference compound]
Papp at 10 µM: 0.13 ×10⁻⁶ cm/s
//
compound: C[N+](C)(C)CCOP(=O)([O-])OP(=O)([O-])OC[C@H]1O[C@@H](n2ccc(NO)nc2=O)[C@H](O)[C@@H]1O.[Na+]
Papp at 10 µM: 30.7 ×10⁻⁶ cm/s

====

experiment notes: in vitro
condition: African green monkey, MA-104 cells

compound: C[N+](C)(C)CCOP(=O)([O-])OP(=O)([O-])OC[C@H]1O[C@@H](n2ccc(NO)nc2=O)[C@H](O)[C@@H]1O.[Na+] [Example 1, mono sodium salt]
CC50, nM: 2400

Sourced from patent US20250032527A1
